Taken from patent US20200002421A1.

Molecular target: T1, huB7-H3 (Homo sapiens, UniProt Q5ZPR3)
T1 construct: His tag (6xHis) (C)
T1 sequence (Q5ZPR3 with tags, fused parts or gaps): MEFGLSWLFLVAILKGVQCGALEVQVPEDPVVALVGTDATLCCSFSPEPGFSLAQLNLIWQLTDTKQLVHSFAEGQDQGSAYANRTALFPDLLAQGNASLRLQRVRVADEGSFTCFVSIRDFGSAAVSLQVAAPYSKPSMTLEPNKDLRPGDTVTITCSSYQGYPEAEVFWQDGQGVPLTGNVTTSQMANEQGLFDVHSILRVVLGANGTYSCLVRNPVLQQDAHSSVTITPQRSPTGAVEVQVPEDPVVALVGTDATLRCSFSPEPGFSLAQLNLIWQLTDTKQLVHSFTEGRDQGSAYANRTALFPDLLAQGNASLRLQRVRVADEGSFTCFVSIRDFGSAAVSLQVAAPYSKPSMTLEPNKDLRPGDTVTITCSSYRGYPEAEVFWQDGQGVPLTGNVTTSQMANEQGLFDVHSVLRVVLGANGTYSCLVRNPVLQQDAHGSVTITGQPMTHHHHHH
Assay: Biacore T200 SPR binding kinetics, mAb capture
Conditions: Table 3
Description: The binding affinity of the purified anti-B7-H3 monoclonal antibodies was determined by surface […]. […] The binding kinetics were derived from SPR measurements using a Biacore T200 instrument and a mAb capture approach (as described in the materials and methods below). Biacore T200 SPR instruments were used to measure the binding kinetics of human B7-H3 (4Ig-B7-H3 variant) (analyte) binding to various mAbs (ligands). […]
measured_parameter: huB7-H3 ka(1/Ms) (M⁻¹ s⁻¹)
# output: bare number, implied unit M⁻¹ s⁻¹

Ab3: mouse hybridoma anti-B7-H3 monoclonal antibody, mouse IgG1/k (antibody, V domains shown) VH: QVQLQQPGAELVKPGASVKLSCKASGYTFSSYWMHWVKQRPGQGLEWIGLIHPDSGSTNYNEMFKNKATLTVDRSSSTAYVQLSSLTSEDSAVYFCAGGGRLYFDYWGQGTTLTVSS VL: DVVMTQTPLSLPVSLGDQASISCRSSQSLVHSNGDTYLRWYLQKPGQSPKLLIYKVSNRFSGVPDRFSGSGSGTDFTLKITRVEAEDLGVYFCSQSTHVPYTFGGGTKLEIK = 520000

Please find the next molecule below.
Prompt line: Reported huB7-H3 ka(1/Ms) for Ab16: mouse hybridoma anti-B7-H3 monoclonal antibody, mouse IgG1/k (antibody, V domains shown) VH: EVKLLESGGGLVQPGGSLKLSCAASGFDFSRYWMSWVRQAPGKGLEWIGEINPDSSTINYTPSLKDKFIISRDNAKNTLYLQMSKVRSEDTALYYCARPGFGNYIYAMDYWGQGTSVTVSS VL: DIQMTQTTSSLSASLGDRVTINCRASQDISNFLNWYQQKPDGTVKLLIYYTSRLYLGVPSRFSGSGSGTDYSLTISNLEQEDIATYFCQQGNTLPPTFGGGTKLEIK : what is it?
Response line: 140000
